Type: in vivo, human
settings: both, human, plasma, po, 10 mg
quantity measured: Tmax

Item NCCCC[C@H](N[C@@H](CCc1ccccc1)C(=O)O)C(=O)N1CCC[C@H]1C(=O)O : provide Tmax
6 h

----------
Assay type: in vivo, human
settings: both, human, plasma and urine, po, 10 mg, CLrenal, control (water), geometric mean
quantity measured: CL renal (mL/min)
Give your result in mL/min as a bare value.

Item NCCCC[C@H](N[C@@H](CCc1ccccc1)C(=O)O)C(=O)N1CCC[C@H]1C(=O)O : provide CL renal
57.7

----------
Format: in vivo, human
settings: both, human, plasma and urine, po, 10 mg, CLrenal, GTE, geometric mean
quantity measured: CL renal
Write the quantity with the unit trailing the number.

Item NCCCC[C@H](N[C@@H](CCc1ccccc1)C(=O)O)C(=O)N1CCC[C@H]1C(=O)O [lisinopril] : provide CL renal
56.9 mL/min
